Each entry below carries its measured IC50, system: GST tagged PIP4KtypeIIB (Homo sapiens).
Sequence (P78356 whole entry): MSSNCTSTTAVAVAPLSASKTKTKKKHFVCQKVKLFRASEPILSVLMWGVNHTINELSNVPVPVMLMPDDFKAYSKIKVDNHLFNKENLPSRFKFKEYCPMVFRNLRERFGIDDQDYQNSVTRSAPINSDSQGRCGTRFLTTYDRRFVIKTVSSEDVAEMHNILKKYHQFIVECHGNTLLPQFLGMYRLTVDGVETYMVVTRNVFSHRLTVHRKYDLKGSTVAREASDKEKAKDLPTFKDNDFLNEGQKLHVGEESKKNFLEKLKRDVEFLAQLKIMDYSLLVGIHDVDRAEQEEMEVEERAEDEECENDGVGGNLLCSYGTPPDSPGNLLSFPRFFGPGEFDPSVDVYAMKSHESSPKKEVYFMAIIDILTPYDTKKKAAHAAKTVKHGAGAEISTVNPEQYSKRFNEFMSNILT

CN(C)C(=O)c1ccc(-c2cc(-c3ccnc(CNC(=O)c4ccc(NC(=O)OC(C)(C)C)cc4)c3)cnc2N)nc1 [Example 187] = > 5000 nM
COC(=O)c1cc2c(-c3cncc(-c4ccc(-c5nncn5C(C)C)cc4)c3)ccnc2[nH]1 [Example 211] = 1 to 10 nM
Cc1cc(-c2cncc(-c3ccc(N4CCCC4=O)cc3)c2)n2cnnc2n1 [Example 336] = > 5000 nM

[ask] Provide IC50, tested on GST tagged PIP4KtypeIIB (Homo sapiens), for CN(C)S(=O)(=O)c1cnc2[nH]cc(-c3cncc(-c4ccc(N5CCCC5=O)cc4)c3)c2c1 [Example 295] .
[reply] 1000 to 2500 nM

[ask] Provide IC50, tested on GST tagged PIP4KtypeIIB (Homo sapiens), for Cc1c(-c2cncc(-c3ccc(N4CCCC4=O)cc3)c2)c2cc(C(=O)N(C)C)cnc2n1C [Example 249] .
[reply] 100 to 1000 nM

###

pIC50: −log10 of the molar value.
Each entry below carries its measured pIC50, system: UniProtKB P48426.

O=C(Nc1ccccc1)c1cc2c(-c3cncc(-c4ccc(N5CCCC5=O)cc4)c3)ccnc2[nH]1 = 5.30 to 5.60

[ask] Provide pIC50, tested on UniProtKB P48426, for "CC(C)c1cnoc1-c1ccc(-c2cncc(-c3ccnc4c3cc3n4CCN(C)C3=O)c2)cc1" .
[reply] 6.00 to 7.00

###

Protein target, amino acids: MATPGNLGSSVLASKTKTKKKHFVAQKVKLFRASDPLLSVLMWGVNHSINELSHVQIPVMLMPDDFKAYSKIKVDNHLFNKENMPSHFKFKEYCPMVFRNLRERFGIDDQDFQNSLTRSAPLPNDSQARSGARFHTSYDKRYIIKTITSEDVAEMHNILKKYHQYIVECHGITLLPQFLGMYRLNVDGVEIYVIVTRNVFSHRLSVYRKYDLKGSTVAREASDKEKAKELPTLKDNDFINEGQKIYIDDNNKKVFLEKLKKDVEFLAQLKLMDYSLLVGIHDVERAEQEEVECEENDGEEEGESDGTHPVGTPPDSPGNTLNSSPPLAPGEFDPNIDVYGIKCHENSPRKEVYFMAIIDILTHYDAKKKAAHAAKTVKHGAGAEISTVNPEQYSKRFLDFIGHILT
propertyLabel: IC50

The following molecules have reported results that may help.
CN(C)C(=O)c1ccc(-c2cc(-c3ccnc4cccc(C#N)c34)cnc2N)nc1 = > 5000 nM
C[C@@H](O)c1cnc2c(c1)c(-c1cncc(-c3ccc(N4CCCC4=O)cc3)c1)cn2C = 100 to 1000 nM
O=C(NCCc1ccncc1)c1cc2c(-c3cncc(-c4ccc(N5CCCC5=O)cc4)c3)ccnc2[nH]1 = 100 to 1000 nM

[ask] Supply reported IC50 belonging to this molecule: "Cc1c(-c2cncc(-c3ccc(N4CCCC4=O)cc3)c2)c2cc(C(=O)N(C)C)cnc2n1C"
[reply] 100 to 1000 nM

[ask] Supply reported IC50 belonging to this molecule: "CN(C)C(=O)c1ccc(-c2cc(-c3[nH]nc4ncncc34)cnc2N)nc1"
[reply] 100 to 1000 nM

[ask] Supply reported IC50 belonging to this molecule: "Cn1ccc2c(-c3cncc(-c4ccc(N5CCCC5=O)cc4)c3)cn(C)c2c1=O"
[reply] 100 to 1000 nM

[ask] Supply reported IC50 belonging to this molecule: "COC(=O)c1cc2c(-c3cncc(-c4ccc(N5CCCC5=O)cc4)c3)ccnc2o1"
[reply] 10 to 100 nM

[ask] Supply reported IC50 belonging to this molecule: "CN(C)S(=O)(=O)c1cnc2[nH]cc(-c3cncc(-c4ccc(N5CCCC5=O)cc4)c3)c2c1"
[reply] 100 to 1000 nM
